- Test system: LK-2 (Squamous Cell Lung Carcinoma)
- Assay overview: combination Emax (second highest fraction inhibited in the dose matrix, 72 h); higher = more inhibition; extreme values may be limits of the assay
Assignment: determine reported combination Emax for the given molecules.

Prompt line: Give reported combination Emax value for C[C@@H](c1ccc2nccn2c1)n1nnc2ncc(-c3cnn(C)c3)nc21 [Savolitinib] + Cc1c2c(nn1C)CSCc1cc(n(C)n1)CSc1cc(c3ccccc3c1)OCCCc1c(C(=O)O)n(C)c3c-2c(Cl)ccc13 [AZD5991] (first compound max 1 µM, 7x7, partner max 1 µM)
Response line: 0.202

Prompt line: Give reported combination Emax value for CC1(C)CCC(CN2CCN(c3ccc(C(=O)NS(=O)(=O)c4ccc(NCC5CCOCC5)c([N+](=O)[O-])c4)c(Oc4cnc5[nH]ccc5c4)c3)CC2)=C(c2ccc(Cl)cc2)C1 [Venetoclax] + C[C@@H](Nc1cc(F)cc(F)c1)c1cc(C(=O)N(C)C)cc2c(=O)cc(N3CCOCC3)oc12 [AZD8186] (first compound max 1 µM, 7x7, partner max 3 µM)
Response line: 0.0674

* * *

Assignment: determine reported combination Emax for the given compounds.
- Test system: L-1236 (Hodgkin's Lymphoma)
- Assay overview: combination Emax (second highest fraction inhibited in the dose matrix, 72 h); higher = more inhibition; extreme values may be limits of the assay
Give only the figure.

Prompt line: Give reported combination Emax value for N#Cc1cnc(Nc2cc(NC[C@H]3CNCCO3)c(C(F)(F)F)cn2)cn1 [SRA737] + CCc1c2c(nc3ccc(O)cc13)-c1cc3c(c(=O)n1C2)COC(=O)[C@]3(O)CC [SN-38] (first compound max 10 µM, 7x7, partner max 0.3 µM)
Response line: 0.944

Prompt line: Give reported combination Emax value for COc1cccc(OCCCN)c1-c1cc(Nc2cnc(C#N)cn2)n[nH]1 [Prexasertib] + O=C(c1cc(Cc2n[nH]c(=O)c3ccccc23)ccc1F)N1CCN(C(=O)C2CC2)CC1 [Olaparib] (first compound max 1 µM, 7x7, partner max 10 µM)
Response line: 0.831

Prompt line: Give reported combination Emax value for Cc1c2c(nn1C)CSCc1cc(n(C)n1)CSc1cc(c3ccccc3c1)OCCCc1c(C(=O)O)n(C)c3c-2c(Cl)ccc13 [AZD5991] + CC1(C)CCC(CN2CCN(c3ccc(C(=O)NS(=O)(=O)c4ccc(NCC5CCOCC5)c([N+](=O)[O-])c4)c(Oc4cnc5[nH]ccc5c4)c3)CC2)=C(c2ccc(Cl)cc2)C1 [Venetoclax] (first compound max 1 µM, 7x7, partner max 1 µM)
Response line: 0.764

Prompt line: Give reported combination Emax value for Cc1nc(-c2cn3c(n2)-c2ccc(-c4cnn(C(C)(C)C(N)=O)c4)cc2OCC3)n(C(C)C)n1 [Taselisib] + O=C(Nc1ccc2[nH]nc(-c3ccncc3)c2c1)[C@@H]1CCN(CC(=O)N2CCN(c3ccc(-c4ncccn4)cc3)CC2)C1 [SCH772984] (first compound max 10 µM, 7x7, partner max 5 µM)
Response line: 0.722

Prompt line: Give reported combination Emax value for CC1(C)CCC(CN2CCN(c3ccc(C(=O)NS(=O)(=O)c4ccc(NCC5CCOCC5)c([N+](=O)[O-])c4)c(Oc4cnc5[nH]ccc5c4)c3)CC2)=C(c2ccc(Cl)cc2)C1 [Venetoclax] + C1CN(CCC1(C(=O)N[C@@H](CCO)C2=CC=C(C=C2)Cl)N)C3=NC=NC4=C3C=CN4 [Capivasertib] (first compound max 1 µM, 7x7, partner max 3 µM)
Response line: 0.644

Prompt line: Give reported combination Emax value for COc1cccc(OCCCN)c1-c1cc(Nc2cnc(C#N)cn2)n[nH]1 [Prexasertib] + C=CCn1c(=O)c2cnc(Nc3ccc(N4CCN(C)CC4)cc3)nc2n1-c1cccc(C(C)(C)O)n1 [AZD1775] (first compound max 1 µM, partner max 1 µM)
Response line: 0.786

Prompt line: Give reported combination Emax value for O=C(c1cc(Cc2n[nH]c(=O)c3ccccc23)ccc1F)N1CCN(C(=O)C2CC2)CC1 [Olaparib] + Cc1c2c(nn1C)CSCc1cc(n(C)n1)CSc1cc(c3ccccc3c1)OCCCc1c(C(=O)O)n(C)c3c-2c(Cl)ccc13 [AZD5991] (first compound max 10 µM, 7x7, partner max 1 µM)
Response line: 0.53

Prompt line: Give reported combination Emax value for CS(=O)(=O)CCNCc1ccc(-c2ccc3ncnc(Nc4ccc(OCc5cccc(F)c5)c(Cl)c4)c3c2)o1 [Lapatinib] + C[C@@H](Oc1cc(-c2cnn(C3CCNCC3)c2)cnc1N)c1c(Cl)ccc(F)c1Cl [Crizotinib] (first compound max 10 µM, 7x7, partner max 10 µM)
Response line: 0.984
